# recombinant UMI read abundance (log10) per record follows
assay: recombinant UMI read abundance after kanamycin selection (control-corrected) (log10(CPM+1)); higher = more efficient recombination; extreme values may be limits of the assay; sequences stand for … in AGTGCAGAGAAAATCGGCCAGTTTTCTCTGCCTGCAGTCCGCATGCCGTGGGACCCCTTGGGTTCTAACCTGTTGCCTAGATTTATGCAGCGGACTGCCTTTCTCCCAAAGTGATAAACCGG…AGGTTGGTTTCACT; site = the 11-nt donor;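 note: IS621 bridge recombinase in Escherichia coli cells against a fixed T5 target plasmid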
Note: the reply should be a number with no unit written.

query_sequence	parameter_measured	reported_measurement
ACACCATCATGGACCGGTTTTCCCGGTAATCCGTATTTGCA (site ACACCATCTTG)	recombinant UMI read abundance (log10)	2.8

**Q:** Give its recombinant UMI read abundance (log10) value. Item: TGTTGCCCATGGACCGGTTTTCCCGGTAATCCGTATTTGTA (site TGTTGCCCTTA)
**A:** 0.0196
